Test: Pharmacokinetics study after i.v. injection in rats
Type: in vivo, Wistar rats
Details: male, Wistar, rat, plasma, iv, 20 mg/kg
measuredEndpoint: Tmax (min)

>>> df
                  recordsmiles  measuredendpoint  numericvalue
0  O=C(O)Cn1cc(F)c(=O)[nH]c1=O              Tmax             1

* * *

Test: In vivo distribution in H22 tumor-bearing mice
Design: species or system Kunming mice
Settings: Kunming, mouse, tumor, iv, 20 mg/kg
measuredEndpoint: concentration at 15 min (ng/g)

>>> print(df.to_string())
                                   molecule  numericvalue
0  O=C(O)Cn1cc(F)c(=O)[nH]c1=O [5-FA, 5-fluorouracil-1-acetic acid]          4860

* * *

Experiment: Pharmacokinetics study after i.v. injection in rats
Type: in vivo, Wistar rats
Conditions: male, Wistar, rat, plasma, iv; rats, i.v. 20 mg/kg 5-FA; 15 min
measuredEndpoint: concentration at 15 min (µg/mL)

In [3]: df
Out[3]:
                  recordsmiles         measuredendpoint  numericvalue
0  O=C(O)Cn1cc(F)c(=O)[nH]c1=O  concentration at 15 min          79.9

* * *

Experiment: Pharmacokinetics study after i.v. injection in rats
Assay type: in vivo, Wistar rats
Settings: male, Wistar, rat, plasma, iv; rats, i.v. 20 mg/kg 5-FA; 5 min
measuredEndpoint: concentration at 5 min (µg/mL)

>>> print(df.to_string())
                  recordsmiles  endpointunit  numericvalue
0  O=C(O)Cn1cc(F)c(=O)[nH]c1=O         µg/mL          79.9

* * *

Assay: Pharmacokinetics study after i.v. injection in rats
Assay type: in vivo, Wistar rats
Details: male, Wistar, rat, plasma, iv, 20 mg/kg; read-out: t1/2 (elimination half life) (converted)
measuredEndpoint: half-life (h)

                  recordsmiles  numericvalue
0  O=C(O)Cn1cc(F)c(=O)[nH]c1=O          1.54

* * *

Assay: Pharmacokinetics study after i.v. injection in rats
Format: in vivo, Wistar rats
Conditions: male, Wistar, rat, plasma, iv; rats, i.v. 20 mg/kg 5-FA; 2 h
measuredEndpoint: concentration at 2 h (µg/mL)

                  recordsmiles  numericvalue
0  O=C(O)Cn1cc(F)c(=O)[nH]c1=O          79.9
